- MEASURED TARGET: cell surface-expressed H3N2 WN/05 HA trimer (influenza A virus A/Wisconsin/67/2005 (H3N2))
- ASSAY COMMENT: cell-based or functional assay
PROPERTY: IC50 of pseudo virus neutralization H3N2 WN/05

*Q* Retrieve IC50 of pseudo virus neutralization H3N2 WN/05 measured for P10 (antibody, V domains shown) VH: EVQLVESGGGLVQPGGSLRLSCAASGFTIDNSWIHWVRQAPGKGLEWVASIWPFGGYTYYADSVKGRFTISADTSKNTAYLQMNSLRAEDTAVYYCARFGNVFDWYMDYWGQGTLVTVSS VL: DIQMTQSPSSLSASVGDRVTITCRASQDVNSNVAWYQQKPGKAPKLLIYWAGYLYSGVPSRFSGSGSGTDFTLTISSLQPEDFATYYCQQSSDFPITFGQGTKVEIKR and print it.
*A* > 20 µg/mL

*Q* Retrieve IC50 of pseudo virus neutralization H3N2 WN/05 measured for P48 (antibody, V domains shown) VH: EVQLVESGGGLVQPGGSLRLSCAASGFTINSWGIHWVRQAPGKGLEWVAGIGPSWGYTSYADSVKGRFTISADTSKNTAYLQMNSLRAEDTAVYYCARFGDGDFDLMDYWGQGTLVTVSS VL: DIQMTQSPSSLSASVGDRVTITCRASQDVWSYVAWYQQKPGKAPKLLISYTSYLYSGVPSRFSGSGSGTDFTLTISSLQPEDFATYYCQQYFNWPITFGQGTKVEIKR and print it.
*A* > 20 µg/mL

The origin of these recorded values is patent US20210070843A1.
